Data provenance is paper PMC10525509.

Values of pIC50 reported for urease enzyme (Canavalia ensiformis, UniProt P07374) appear below.
# reply with the number alone; pIC50 is -log10 of concentration in mol/L

Known pIC50 results, listed for orientation:
{"columns": ["COMPOUND", "pIC50"],
 "data": [
  ["O=C(O)c1ccc(-c2ccc(/C=C/C(=O)c3ccccc3)o2)cc1 [Compound 4e]", 4.60],
  ["Cc1cc(-c2ccc(/C=C/C(=O)c3ccccc3)o2)cc([N+](=O)[O-])c1 [Compound 4p]", 4.28],
  ["O=C(O)c1cccc(-c2ccc(/C=C/C(=O)c3ccccc3)o2)c1 [Compound 4n]", 4.33],
  ["O=C(/C=C/c1ccc(-c2ccc(Cl)cc2Cl)o1)c1ccccc1 [Compound 4o]", 4.47],
  ["O=C(/C=C/c1ccc(-c2ccccc2[N+](=O)[O-])o1)c1ccccc1 [Compound 4l]", 4.04]
]}

Request: pIC50, test system urease enzyme (Canavalia ensiformis, UniProt P07374), entry O=C(/C=C/c1ccc(-c2cc(Cl)ccc2Cl)o1)c1ccccc1 [Compound 4h]
Response: 4.79

---

Values of pIC50 reported for urease enzyme (Canavalia ensiformis) appear below.
# reply with the number alone; pIC50 is -log10 of concentration in mol/L

{"columns": ["COMPOUND", "pIC50"],
 "data": [
  ["O=C(/C=C/c1ccc(-c2ccccc2Cl)o1)c1ccccc1 [Compound 4s]", 4.73],
  ["O=C(/C=C/c1ccc(-c2ccc(Cl)c(Cl)c2)o1)c1ccccc1 [Compound 4f]", 4.68],
  ["O=C(/C=C/c1ccc(-c2cccc(Cl)c2)o1)c1ccccc1 [Compound 4k]", 4.64],
  ["O=C(/C=C/c1ccc(-c2ccc([N+](=O)[O-])cc2[N+](=O)[O-])o1)c1ccccc1 [Compound 4q]", 4.35],
  ["O=C(/C=C/c1ccc(-c2ccc([N+](=O)[O-])cc2)o1)c1ccccc1 [Compound 4a]", 4.04]
]}

Request: pIC50, test system urease enzyme (Canavalia ensiformis), entry O=C(/C=C/c1ccc(-c2cc(Cl)ccc2[N+](=O)[O-])o1)c1ccccc1 [Compound 4i]
Response: 4.04

Request: pIC50, test system urease enzyme (Canavalia ensiformis), entry O=C(/C=C/c1ccc(-c2ccc([N+](=O)[O-])cc2Cl)o1)c1ccccc1 [Compound 4m]
Response: 4.57

Request: pIC50, test system urease enzyme (Canavalia ensiformis), entry O=C(/C=C/c1ccc(-c2cccc(Cl)c2[N+](=O)[O-])o1)c1ccccc1 [Compound 4j]
Response: 4.58

---

ASSAYED_SYSTEM: urease enzyme (Canavalia ensiformis)
Construct: purchased CAS Number: 9002-13-5
EXPERIMENT_NOTES: Urease inhibition assay (modified Berthelot assay)
Assay type: biochemical, Canavalia ensiformis (Jack bean)
RUN_CONDITIONS: read-out: %Age Urease Inhibition Activity (0.1 mM)
MEASURED_ENDPOINT: inhibition at 100 µM (%)
Quick note: give the figure in %, leave out the unit.

{"columns": ["MOLECULAR_STRING", "MEASUREMENT_UNITS", "inhibition at 100 µM"],
 "data": [
  ["O=C(/C=C/c1ccc(-c2cccc(Cl)c2)o1)c1ccccc1", "%", 69.5],
  ["O=C(/C=C/c1ccc(-c2ccccc2[N+](=O)[O-])o1)c1ccccc1", "%", 51.5],
  ["O=C(/C=C/c1ccc(-c2ccc(Br)cc2)o1)c1ccccc1", "%", 39.4],
  ["O=C(O)c1cccc(-c2ccc(/C=C/C(=O)c3ccccc3)o2)c1", "%", 62.3]
]}

Request: inhibition at 100 µM, test system urease enzyme (Canavalia ensiformis), entry O=C(/C=C/c1ccc(-c2ccccc2Cl)o1)c1ccccc1
Response: 71.4

Request: inhibition at 100 µM, test system urease enzyme (Canavalia ensiformis), entry O=C(/C=C/c1ccc(-c2cc(Cl)cc(Cl)c2)o1)c1ccccc1
Response: 39.7

Request: inhibition at 100 µM, test system urease enzyme (Canavalia ensiformis), entry O=C(/C=C/c1ccc(-c2cccc([N+](=O)[O-])c2)o1)c1ccccc1
Response: 46.5

---

ASSAYED_SYSTEM: urease enzyme (Canavalia ensiformis)
Construct: purchased CAS Number: 9002-13-5
EXPERIMENT_NOTES: Urease inhibition assay (modified Berthelot assay)
Format: biochemical, Canavalia ensiformis (Jack bean)
RUN_CONDITIONS: read-out: %Age Urease Inhibition Activity (0.1 mM)
Tick rule met if inhibition at 100 µM is 60% or greater. Tick rule not met if inhibition at 100 µM is less than 60%.

Request: Form field: inhibition at 100 µM at least 60%? Entry: Cc1c(-c2ccc(/C=C/C(=O)c3ccccc3)o2)cccc1[N+](=O)[O-]
Response: rule not met

---

ASSAYED_SYSTEM: urease enzyme (Canavalia ensiformis, UniProt P07374)
Construct: purchased CAS Number: 9002-13-5
Sequence (P07374 whole entry, looked up): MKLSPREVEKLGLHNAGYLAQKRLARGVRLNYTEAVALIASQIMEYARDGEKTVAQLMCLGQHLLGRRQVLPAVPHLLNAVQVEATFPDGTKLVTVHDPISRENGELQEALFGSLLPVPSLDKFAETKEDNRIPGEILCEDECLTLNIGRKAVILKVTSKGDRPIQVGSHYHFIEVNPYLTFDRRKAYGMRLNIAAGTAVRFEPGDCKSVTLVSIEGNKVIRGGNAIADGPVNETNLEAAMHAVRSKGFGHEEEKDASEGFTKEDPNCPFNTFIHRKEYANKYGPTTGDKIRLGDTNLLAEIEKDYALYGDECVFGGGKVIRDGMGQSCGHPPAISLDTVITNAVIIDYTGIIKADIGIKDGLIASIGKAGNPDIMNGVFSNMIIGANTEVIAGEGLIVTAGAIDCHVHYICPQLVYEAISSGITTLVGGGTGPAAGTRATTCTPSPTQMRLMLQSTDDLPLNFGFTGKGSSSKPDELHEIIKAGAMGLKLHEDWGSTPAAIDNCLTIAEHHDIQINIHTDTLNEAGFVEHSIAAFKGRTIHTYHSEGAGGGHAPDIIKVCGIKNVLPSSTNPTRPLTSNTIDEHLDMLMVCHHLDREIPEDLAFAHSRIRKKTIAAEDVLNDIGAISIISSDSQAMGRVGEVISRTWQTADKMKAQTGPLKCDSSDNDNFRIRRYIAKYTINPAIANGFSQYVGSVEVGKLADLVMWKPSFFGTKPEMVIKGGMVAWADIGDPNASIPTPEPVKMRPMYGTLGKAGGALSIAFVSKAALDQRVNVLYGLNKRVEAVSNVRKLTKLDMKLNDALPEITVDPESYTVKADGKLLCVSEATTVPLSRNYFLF
EXPERIMENT_NOTES: Urease inhibition assay (modified Berthelot assay)
Type: biochemical, Canavalia ensiformis (Jack bean)
RUN_CONDITIONS: read-out: %Age Urease Inhibition Activity (0.1 mM)
MEASURED_ENDPOINT: inhibition at 100 µM

Known inhibition at 100 µM results, listed for orientation:
{"columns": ["MOLECULAR_STRING", "inhibition at 100 µM"],
 "data": [
  ["Cc1cc(-c2ccc(/C=C/C(=O)c3ccccc3)o2)cc([N+](=O)[O-])c1", "57.4%"],
  ["O=C(/C=C/c1ccc(-c2cc(Cl)ccc2[N+](=O)[O-])o1)c1ccccc1", "51.7%"],
  ["O=C(/C=C/c1ccc(-c2cc(Cl)ccc2Cl)o1)c1ccccc1", "66.2%"],
  ["O=C(/C=C/c1ccc(-c2ccc(Cl)cc2)o1)c1ccccc1", "27.1%"],
  ["O=C(/C=C/c1ccc(-c2ccc([N+](=O)[O-])cc2[N+](=O)[O-])o1)c1ccccc1", "54.7%"]
]}

Request: Can you look up the measured inhibition at 100 µM of O=C(/C=C/c1ccc(-c2ccc(Cl)cc2Cl)o1)c1ccccc1 for me?
Response: 54.9%

Request: Can you look up the measured inhibition at 100 µM of O=C(O)c1ccc(-c2ccc(/C=C/C(=O)c3ccccc3)o2)cc1 for me?
Response: 65.5%

Request: Can you look up the measured inhibition at 100 µM of O=C(/C=C/c1ccc(-c2ccc([N+](=O)[O-])cc2Cl)o1)c1ccccc1 for me?
Response: 63.1%

---

ASSAYED_SYSTEM: urease enzyme (Canavalia ensiformis, UniProt P07374)
Construct: purchased CAS Number: 9002-13-5
EXPERIMENT_NOTES: Urease inhibition assay (modified Berthelot assay)
Assay type: biochemical, Canavalia ensiformis (Jack bean)
RUN_CONDITIONS: read-out: %Age Urease Inhibition Activity (0.1 mM)
MEASURED_ENDPOINT: inhibition at 100 µM (%)
Quick note: give the figure in %, leave out the unit.

Known inhibition at 100 µM results, listed for orientation:
{"columns": ["MOLECULAR_STRING", "ASSAYED_SYSTEM", "ENDPOINT_VALUE"],
 "data": [
  ["O=C(/C=C/c1ccc(-c2ccc(Cl)c(Cl)c2)o1)c1ccccc1", "urease enzyme (Canavalia ensiformis, UniProt P07374)", 69.7],
  ["O=C(/C=C/c1ccc(-c2cccc(Cl)c2[N+](=O)[O-])o1)c1ccccc1", "urease enzyme (Canavalia ensiformis, UniProt P07374)", 68.2]
]}

Now for another entry.
Request: Can you look up the measured inhibition at 100 µM of O=C(/C=C/c1ccc(-c2ccc([N+](=O)[O-])cc2)o1)c1ccccc1 for me?
Response: 50.7
